# assay procedure: Solubility of oxaliplatin in aqueous carbohydrate solutions (saturated solution supernatant, HPLC; pH of saturated solution)
# test parameters: water

compound | solubility
O=C1[O][Pt-2]2([NH2+]C3CCCC[C@H]3[NH2+]2)[O]C1=O (stereo partly shown) [Oxaliplatin] | ~7500 µg/mL

---

# assay procedure: Solubility of oxaliplatin in aqueous carbohydrate solutions (saturated solution supernatant, HPLC; pH of saturated solution)
# test parameters: aqueous solutions with solubilizers, aqueous with cosolvent or surfactant or cyclodextrin
endpoint label: solubility

compound | endpoint label | value measured
O=C1[O][Pt-2]2([NH2+]C3CCCC[C@H]3[NH2+]2)[O]C1=O (stereo partly shown) | solubility | > 7000 µg/mL
